- study_target: Serine/threonine-protein kinase pim-1 (Homo sapiens, UniProt P11309); note: in the data inactive means no Kd found up to 30 µM
- Sequence (P11309 whole entry): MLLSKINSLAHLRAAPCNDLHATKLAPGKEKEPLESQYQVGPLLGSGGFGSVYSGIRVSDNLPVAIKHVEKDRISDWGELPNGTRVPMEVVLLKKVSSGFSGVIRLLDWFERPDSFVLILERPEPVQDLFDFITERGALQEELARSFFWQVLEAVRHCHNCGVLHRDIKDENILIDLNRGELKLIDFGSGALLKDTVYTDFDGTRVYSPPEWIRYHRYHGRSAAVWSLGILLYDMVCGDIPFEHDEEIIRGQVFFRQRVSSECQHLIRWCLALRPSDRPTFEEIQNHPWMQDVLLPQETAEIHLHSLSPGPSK
Activity calls are given as the source filed them.
Outcome field: choose from YES (active), NO (inactive)

Example entries begin here.
[in] Just curious, what result did COc1cc2ncnc(Nc3ccc(F)c(Cl)c3)c2cc1NC(=O)/C=C/CN1CCCCC1 [DACOMITINIB ANHYDROUS] get here?
[out] NO

[in] Just curious, what result did CNC(=O)c1cccc(-c2ccc3c(N4CCOC[C@@H]4C)nc(N4CCOC[C@@H]4C)nc3n2)c1 [VISTUSERTIB] get here?
[out] NO

[in] Just curious, what result did COc1ccc2c(OCc3nnc4ccc(-c5ccccc5)nn34)ccnc2c1 [AMG-208] get here?
[out] NO

[in] Just curious, what result did COCCN1CCN(Cc2ccc(-c3n[nH]c4c3C(=O)c3c(NC(=O)NN5CCOCC5)cccc3-4)cc2)CC1 [RGB-286638] get here?
[out] NO

[in] Just curious, what result did O=c1[nH]c([C@@H]2CCCN2)nc2c1oc1ccc(Cl)cc12 get here?
[out] YES

Others:
[in] Just curious, what result did CC[C@@](C)(Nc1ccnc(-c2c[nH]c3ncccc23)n1)C(=O)NCC(F)(F)F [DECERNOTINIB] get here?
[out] NO

[in] Just curious, what result did Cc1ccc(C(=O)Nc2ccc(Oc3cc4cnn(C)c4cc3-c3cn[nH]c3)c(F)c2)c(=O)n1-c1ccc(F)cc1 [MERESTINIB] get here?
[out] NO

[in] Just curious, what result did Cn1cc(-c2[nH]c3cc(NC(=O)[C@H](N)C4CCCCC4)cc4c3c2C=NNC4=O)cn1 get here?
[out] NO

---

Kd tested on Mitotic checkpoint serine/threonine-protein kinase BUB1 (Homo sapiens): recorded values; note: in the data inactive means no Kd found up to 30 µM
Sequence (O43683 whole entry): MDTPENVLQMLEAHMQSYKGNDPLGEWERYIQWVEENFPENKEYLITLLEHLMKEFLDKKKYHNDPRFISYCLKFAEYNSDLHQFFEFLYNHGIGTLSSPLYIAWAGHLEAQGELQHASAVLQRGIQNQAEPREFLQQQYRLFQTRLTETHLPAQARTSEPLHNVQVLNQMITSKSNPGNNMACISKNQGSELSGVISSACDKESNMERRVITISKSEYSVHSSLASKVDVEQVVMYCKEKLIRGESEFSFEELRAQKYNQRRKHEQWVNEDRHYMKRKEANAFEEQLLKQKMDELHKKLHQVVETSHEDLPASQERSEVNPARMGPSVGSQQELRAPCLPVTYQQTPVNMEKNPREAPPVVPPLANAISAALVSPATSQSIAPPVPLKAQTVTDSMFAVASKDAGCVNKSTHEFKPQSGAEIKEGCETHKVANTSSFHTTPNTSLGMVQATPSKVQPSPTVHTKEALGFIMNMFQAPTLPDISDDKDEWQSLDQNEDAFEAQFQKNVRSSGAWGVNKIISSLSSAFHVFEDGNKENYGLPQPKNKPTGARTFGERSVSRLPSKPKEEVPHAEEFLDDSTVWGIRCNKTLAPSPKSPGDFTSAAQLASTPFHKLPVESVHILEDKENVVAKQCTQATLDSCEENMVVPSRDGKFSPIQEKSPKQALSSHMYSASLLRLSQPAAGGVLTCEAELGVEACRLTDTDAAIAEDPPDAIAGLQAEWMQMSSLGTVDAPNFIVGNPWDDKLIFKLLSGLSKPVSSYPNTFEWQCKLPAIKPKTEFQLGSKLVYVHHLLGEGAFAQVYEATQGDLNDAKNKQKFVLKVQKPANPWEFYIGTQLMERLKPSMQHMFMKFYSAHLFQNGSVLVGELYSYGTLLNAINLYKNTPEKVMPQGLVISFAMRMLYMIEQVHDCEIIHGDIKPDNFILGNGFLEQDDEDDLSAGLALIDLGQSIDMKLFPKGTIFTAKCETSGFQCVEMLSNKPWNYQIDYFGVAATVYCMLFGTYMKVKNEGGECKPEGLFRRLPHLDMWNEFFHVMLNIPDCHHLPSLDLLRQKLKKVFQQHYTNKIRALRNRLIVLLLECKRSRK
Activity calls are given as the source filed them.

# count of solved cases: 4
[in] Recall the reported Kd of Cc1ccc(C(=O)Nc2ccc(Oc3cc4cnn(C)c4cc3-c3cn[nH]c3)c(F)c2)c(=O)n1-c1ccc(F)cc1 on Mitotic checkpoint serine/threonine-protein kinase BUB1 (Homo sapiens) and write it down.
[out] > 30 µM (inactive)

[in] Recall the reported Kd of Cn1cnc2c(F)c(Nc3ccc(Br)cc3Cl)c(C(=O)NOCCO)cc21 on Mitotic checkpoint serine/threonine-protein kinase BUB1 (Homo sapiens) and write it down.
[out] > 30 µM (inactive)

[in] Recall the reported Kd of COc1cc2ncnc3c2cc1OCCCCCN(C)Cc1ccc(Br)cc1N3 on Mitotic checkpoint serine/threonine-protein kinase BUB1 (Homo sapiens) and write it down.
[out] > 30 µM (inactive)

[in] Recall the reported Kd of Cc1c(NC(=O)OC[C@@H]2COCCN2)cn2ncnc(Nc3ccc4c(cnn4Cc4cccc(F)c4)c3)c12 on Mitotic checkpoint serine/threonine-protein kinase BUB1 (Homo sapiens) and write it down.
[out] > 30 µM (inactive)

Others:
[in] Recall the reported Kd of COc1cc2c(N3CCN(C(=O)Nc4ccc(OC(C)C)cc4)CC3)ncnc2cc1OCCCN1CCCCC1 on Mitotic checkpoint serine/threonine-protein kinase BUB1 (Homo sapiens) and write it down.
[out] > 30 µM (inactive)

[in] Recall the reported Kd of O=C(NC[C@H](O)CO)c1ccncc1Nc1ccc(I)cc1F on Mitotic checkpoint serine/threonine-protein kinase BUB1 (Homo sapiens) and write it down.
[out] > 30 µM (inactive)

[in] Recall the reported Kd of Cn1c(=O)c(F)c(Nc2ccc(I)cc2F)c2c(=O)n(C[C@@H](O)CO)cnc21 on Mitotic checkpoint serine/threonine-protein kinase BUB1 (Homo sapiens) and write it down.
[out] > 30 µM (inactive)

[in] Recall the reported Kd of C[C@]1(O)C[C@@H](c2nc(-c3ccc4ccc(-c5ccccc5)nc4c3)c3c(N)nccn32)C1 on Mitotic checkpoint serine/threonine-protein kinase BUB1 (Homo sapiens) and write it down.
[out] > 30 µM (inactive)

---

- study_target: MAP/microtubule affinity-regulating kinase 3 (Homo sapiens); note: in the data inactive means no Kd found up to 30 µM
- Sequence (P27448 whole entry): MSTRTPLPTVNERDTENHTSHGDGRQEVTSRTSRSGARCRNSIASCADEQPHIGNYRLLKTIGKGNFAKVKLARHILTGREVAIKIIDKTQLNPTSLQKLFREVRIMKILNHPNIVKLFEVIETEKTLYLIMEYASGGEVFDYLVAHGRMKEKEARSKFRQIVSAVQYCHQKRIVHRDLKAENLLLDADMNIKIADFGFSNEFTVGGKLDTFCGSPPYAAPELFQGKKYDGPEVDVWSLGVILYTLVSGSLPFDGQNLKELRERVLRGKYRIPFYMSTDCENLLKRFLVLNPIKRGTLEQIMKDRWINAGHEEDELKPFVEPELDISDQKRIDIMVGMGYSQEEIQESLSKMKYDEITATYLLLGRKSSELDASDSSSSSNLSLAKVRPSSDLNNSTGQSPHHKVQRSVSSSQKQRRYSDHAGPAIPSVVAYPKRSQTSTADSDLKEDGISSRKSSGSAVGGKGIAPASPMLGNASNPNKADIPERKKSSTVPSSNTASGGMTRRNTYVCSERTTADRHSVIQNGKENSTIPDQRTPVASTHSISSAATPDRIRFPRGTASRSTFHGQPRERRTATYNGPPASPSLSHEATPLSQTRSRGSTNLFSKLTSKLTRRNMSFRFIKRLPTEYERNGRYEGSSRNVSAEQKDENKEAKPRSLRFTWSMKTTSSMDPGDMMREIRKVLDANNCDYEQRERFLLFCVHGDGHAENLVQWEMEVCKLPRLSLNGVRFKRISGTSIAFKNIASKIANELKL
Active and inactive are the calls of the source.
Outcome field: choose from active, inactive

Example entries begin here.
[in] Just curious, what result did Cn1c(=O)c(F)c(Nc2ccc(I)cc2F)c2c(=O)n(C[C@@H](O)CO)cnc21 get here?
[out] inactive

[in] Just curious, what result did FC(F)(F)c1ccc(CNc2ccc(Cc3c[nH]c4ncc(Cl)cc34)cn2)cn1 get here?
[out] inactive

[in] Just curious, what result did Cc1cc(C(=O)Nc2cc(Oc3ccc4nc(NC(=O)C5CC5)cn4n3)ccc2C)n(C)n1 get here?
[out] inactive

[in] Just curious, what result did O[C@H]1CC[C@H](Nc2ncc3nc(Nc4c(F)cc(F)cc4F)n([C@H]4CCOC4)c3n2)CC1 get here?
[out] inactive

Others:
[in] Just curious, what result did COCCN1CCN(Cc2ccc(-c3n[nH]c4c3C(=O)c3c(NC(=O)NN5CCOCC5)cccc3-4)cc2)CC1 get here?
[out] inactive

[in] Just curious, what result did c1cc(OCCN2CCCCC2)cc(-c2n[nH]c3ccc(-c4nc[nH]n4)cc23)c1 get here?
[out] inactive

[in] Just curious, what result did NC[C@@](O)(c1ccc(Cl)cc1)c1ccc(-c2cn[nH]c2)cc1 get here?
[out] inactive

[in] Just curious, what result did C=CC(=O)Nc1cc(Nc2nccc(-c3cn(C)c4ccccc34)n2)c(OC)cc1N(C)CCN(C)C get here?
[out] inactive

[in] Just curious, what result did CCN1CCN(Cc2ccc(Nc3ncc(F)c(-c4cc(F)c5nc(C)n(C(C)C)c5c4)n3)nc2)CC1 get here?
[out] inactive

---

Kd tested on Eukaryotic translation initiation factor 2-alpha kinase 1 (Homo sapiens): recorded values; note: in the data inactive means no Kd found up to 30 µM
Sequence (Q9BQI3 whole entry): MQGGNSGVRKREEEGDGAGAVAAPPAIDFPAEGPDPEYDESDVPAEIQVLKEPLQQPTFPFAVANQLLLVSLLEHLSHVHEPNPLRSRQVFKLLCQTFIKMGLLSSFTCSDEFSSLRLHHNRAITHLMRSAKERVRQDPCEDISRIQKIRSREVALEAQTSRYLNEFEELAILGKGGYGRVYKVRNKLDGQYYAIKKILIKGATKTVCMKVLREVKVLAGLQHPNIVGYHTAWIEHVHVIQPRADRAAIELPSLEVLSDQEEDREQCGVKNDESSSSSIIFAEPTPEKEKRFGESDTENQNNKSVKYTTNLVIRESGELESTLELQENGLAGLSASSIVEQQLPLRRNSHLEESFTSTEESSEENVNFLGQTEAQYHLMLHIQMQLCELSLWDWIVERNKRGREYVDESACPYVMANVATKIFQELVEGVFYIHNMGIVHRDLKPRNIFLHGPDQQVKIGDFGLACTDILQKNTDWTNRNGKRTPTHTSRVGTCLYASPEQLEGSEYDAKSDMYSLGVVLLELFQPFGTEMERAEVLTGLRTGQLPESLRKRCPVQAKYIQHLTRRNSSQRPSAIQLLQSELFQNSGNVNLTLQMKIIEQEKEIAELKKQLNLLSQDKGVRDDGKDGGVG
The source made the active and inactive calls.

# count of solved cases: 2
[in] Recall the reported Kd of COc1ccc(-c2ccc3ncc4c(c3c2)n(-c2ccc(N3CCNCC3)c(C(F)(F)F)c2)c(=O)n4C)cn1 [BGT-226 FREE BASE] on Eukaryotic translation initiation factor 2-alpha kinase 1 (Homo sapiens) and write it down.
[out] > 30 µM (inactive)

[in] Recall the reported Kd of S=C(NCc1ccc2c(c1)OCO2)N1CCN(c2ncnc3c2oc2ccccc23)CC1 [AMUVATINIB] on Eukaryotic translation initiation factor 2-alpha kinase 1 (Homo sapiens) and write it down.
[out] > 30 µM (inactive)

Others:
[in] Recall the reported Kd of CNC(=O)c1cc(COc2nnc(Nc3ccc(Cl)cc3)c3ccoc23)ccn1 [TELATINIB] on Eukaryotic translation initiation factor 2-alpha kinase 1 (Homo sapiens) and write it down.
[out] > 30 µM (inactive)

[in] Recall the reported Kd of c1cc(OCCN2CCCCC2)cc(-c2n[nH]c3ccc(-c4nc[nH]n4)cc23)c1 [CC-401] on Eukaryotic translation initiation factor 2-alpha kinase 1 (Homo sapiens) and write it down.
[out] > 30 µM (inactive)

---

- study_target: LIM domain kinase 2 (Homo sapiens, UniProt P53671); note: in the data inactive means no Kd found up to 30 µM
- Sequence (P53671 whole entry, the tested form may be a part): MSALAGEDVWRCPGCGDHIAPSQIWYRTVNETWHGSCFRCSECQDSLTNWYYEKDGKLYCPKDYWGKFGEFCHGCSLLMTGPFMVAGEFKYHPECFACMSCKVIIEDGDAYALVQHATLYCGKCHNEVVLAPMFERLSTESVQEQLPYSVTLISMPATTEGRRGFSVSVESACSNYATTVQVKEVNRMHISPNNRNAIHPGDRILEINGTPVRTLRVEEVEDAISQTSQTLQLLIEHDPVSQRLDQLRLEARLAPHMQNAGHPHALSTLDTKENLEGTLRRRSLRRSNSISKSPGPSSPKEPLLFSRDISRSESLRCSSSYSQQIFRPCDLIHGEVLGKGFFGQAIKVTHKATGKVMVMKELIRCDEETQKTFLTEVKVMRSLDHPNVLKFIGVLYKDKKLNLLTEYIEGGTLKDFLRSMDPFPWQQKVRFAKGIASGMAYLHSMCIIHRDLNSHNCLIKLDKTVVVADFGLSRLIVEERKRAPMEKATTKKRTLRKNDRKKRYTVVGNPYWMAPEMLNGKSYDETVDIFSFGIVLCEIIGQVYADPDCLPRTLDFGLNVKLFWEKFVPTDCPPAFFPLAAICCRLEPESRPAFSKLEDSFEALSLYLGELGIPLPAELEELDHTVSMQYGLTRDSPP
Active and inactive are the calls of the source.
Outcome field: choose from yes (1) for active, no (0) for inactive

Example entries begin here.
[in] Just curious, what result did Cc1c(NC(=O)OC[C@@H]2COCCN2)cn2ncnc(Nc3ccc4c(cnn4Cc4cccc(F)c4)c3)c12 [AC-480] get here?
[out] no (0)

[in] Just curious, what result did CCc1cc2c(cc1N1CCC(N3CCOCC3)CC1)C(C)(C)c1[nH]c3cc(C#N)ccc3c1C2=O [ALECTINIB] get here?
[out] no (0)

Others:
[in] Just curious, what result did Cn1c(=O)n(-c2ccc(C(C)(C)C#N)cc2)c2c3cc(-c4cnc5ccccc5c4)ccc3ncc21 [DACTOLISIB] get here?
[out] no (0)

[in] Just curious, what result did O=C(Nc1ccc(OC(F)(F)F)cc1)c1sccc1NCc1ccnc2ccccc12 [OSI-930] get here?
[out] no (0)

[in] Just curious, what result did COc1cc2ncnc3c2cc1OCCCCCN(C)Cc1ccc(Br)cc1N3 [JNJ-26483327] get here?
[out] no (0)

[in] Just curious, what result did CCN(CCCOc1ccc2c(Nc3cc(CC(=O)Nc4cccc(F)c4)n[nH]3)ncnc2c1)CCOP(=O)(O)O [BARASERTIB] get here?
[out] no (0)

[in] Just curious, what result did CC(C)(O)CC(=O)NCCn1ccc2ncnc(Nc3ccc(Oc4cccc(C(F)(F)F)c4)c(Cl)c3)c21 [TAK-285] get here?
[out] no (0)

[in] Just curious, what result did c1cc(OCCN2CCCCC2)cc(-c2n[nH]c3ccc(-c4nc[nH]n4)cc23)c1 [CC-401] get here?
[out] no (0)

[in] Just curious, what result did Cc1cc(Nc2nc(N[C@@H](C)c3ncc(F)cn3)ncc2Cl)n[nH]1 [AZD-1480] get here?
[out] no (0)

[in] Just curious, what result did Cn1cc(-c2[nH]c3cc(NC(=O)[C@H](N)C4CCCCC4)cc4c3c2C=NNC4=O)cn1 get here?
[out] yes (1)

[in] Just curious, what result did CC1(COc2ccc3c(c2)ncn3-c2ccc3cccc(N4CCC(N)CC4)c3n2)COC1 [CRENOLANIB] get here?
[out] no (0)

[in] Just curious, what result did CCN1CCN(Cc2ccc(Nc3ncc(F)c(-c4cc(F)c5nc(C)n(C(C)C)c5c4)n3)nc2)CC1 [ABEMACICLIB] get here?
[out] no (0)

[in] Just curious, what result did COc1cccc(Nc2ncnn3ccc(CN4CC[C@@H](N)[C@H](O)C4)c23)c1 [BMS-690514] get here?
[out] no (0)

[in] Just curious, what result did COc1cc2ncnc(Nc3ccc(F)c(Cl)c3)c2cc1NC(=O)/C=C/CN1CCCCC1 [DACOMITINIB ANHYDROUS] get here?
[out] no (0)

[in] Just curious, what result did O=c1[nH]c([C@@H]2CCCN2)nc2c1oc1ccc(Cl)cc12 get here?
[out] no (0)

[in] Just curious, what result did COc1cc(Nc2ncc(F)c(Nc3ccc4c(n3)N(COP(=O)(O)O)C(=O)C(C)(C)O4)n2)cc(OC)c1OC [FOSTAMATINIB] get here?
[out] no (0)

[in] Just curious, what result did CN1CCN(c2nc(C3=C(c4c[nH]c5ccccc45)C(=O)NC3=O)c3ccccc3n2)CC1 [SOTRASTAURIN] get here?
[out] no (0)

[in] Just curious, what result did COc1cc2nccc(Oc3ccc(NC(=O)C4(C(=O)Nc5ccc(F)cc5)CC4)cc3)c2cc1OC [CABOZANTINIB] get here?
[out] no (0)

[in] Just curious, what result did Cc1cc(-c2cc(OC(=O)c3ccccc3)ccc2Cl)cc2nnc(Nc3ccc(OCCN4CCCC4)cc3)nc12 [TG100-801] get here?
[out] no (0)
